# concentration at 3 h per entry
- assay.explanation: Plasma concentration in Sprague-Dawley rat at 2.3 mg/kg, sc measured at 3 hrs by LC/MS/MS analysis
- Assay type: ADME, organism-based
- Set-up: dose 2.3 mg/kg, route subcutaneous
Remember to quote the unit after the number.

// solved cases for concentration at 3 h follow
>>> observed("C[C@]12C[C@H](N3CCN(C(=O)[C@@H]4CCCN4C(=O)c4cc5ccccc5[n+]([O-])c4)CC3)[C@@H](O)C[C@@H]1CC[C@@H]1[C@@H]2CC[C@]2(C)[C@@H](O)CC[C@@H]12")
"158 ng/mL"
>>> observed("C[C@]12C[C@H](N3CCN(C(=O)[C@@H]4CCCN4C(=O)c4ccc5ccccc5c4)CC3)[C@@H](O)C[C@@H]1CC[C@@H]1[C@@H]2CC[C@@]2(C)[C@H]1CC[C@]2(C)O")
"122 ng/mL"
>>> observed("CO[C@H]1CC[C@H]2[C@@H]3CC[C@H]4C[C@H](O)[C@@H](N5CCN(C(=O)[C@@H]6CCCN6C(=O)c6ccc7ccccc7c6)CC5)C[C@]4(C)[C@H]3CC[C@]12C")
"33.3 ng/mL"
>>> observed("C[C@]12C[C@H](N3CCN(C(=O)[C@@H]4CCCN4C(=O)c4ccc5ncccc5c4)CC3)[C@@H](O)C[C@@H]1CC[C@@H]1[C@@H]2CC[C@]2(C)[C@@H](O)CC[C@@H]12")
"194 ng/mL"
>>> observed("C[C@]12C[C@H](N3CCN(C(=O)[C@@H]4CCCN4C(=O)c4cnc5ccccc5c4)CC3)[C@@H](O)C[C@@H]1CC[C@@H]1[C@@H]2CC[C@]2(C)[C@@H](O)CC[C@@H]12")
"163 ng/mL"

concentration at 3 h recorded for this compound, C[C@]12C[C@H](N3CCN(C(=O)[C@@H]4CCCN4C(=O)c4ccc5ccccc5c4)CC3)[C@@H](O)C[C@@H]1CC[C@@H]1[C@@H]2CC[C@]2(C)[C@@H](O)CC[C@@H]12 , is 64.8 ng/mL

The compound identified as C[C@]12C[C@H](N3CCN(C(=O)[C@@H]4CCCN4C(=O)c4cc5ccccc5cn4)CC3)[C@@H](O)C[C@@H]1CC[C@@H]1[C@@H]2CC[C@]2(C)[C@@H](O)CC[C@@H]12 registered its concentration at 3 h at 123 ng/mL

// sample C[C@]12C[C@H](N3CCN(C(=O)[C@@H]4CCCN4C(=O)c4ccc5ccccc5n4)CC3)[C@@H](O)C[C@@H]1CC[C@@H]1[C@@H]2CC[C@]2(C)[C@@H](O)CC[C@@H]12 , its concentration at 3 h was 163 ng/mL

According to the records, this compound C#C[C@]1(O)CC[C@H]2[C@@H]3CC[C@H]4C[C@H](O)[C@@H](N5CCN(C(=O)[C@@H]6CCCN6C(=O)c6ccc7ccccc7c6)CC5)C[C@]4(C)[C@H]3CC[C@@]21C displays concentration at 3 h of 185 ng/mL

The recorded concentration at 3 h for C#C[C@]1(O)CC[C@H]2[C@@H]3CC[C@H]4C[C@H](O)[C@@H](N5CCN(C(=O)[C@@H]6CCCN6C(=O)c6ccc7ccccc7n6)CC5)C[C@]4(C)[C@H]3CC[C@@]21C is 151 ng/mL

// C[C@]12C[C@H](N3CCN(C(=O)[C@@H]4CCCN4C(=O)c4ccc5ccccc5n4)CC3)[C@@H](O)C[C@@H]1CC[C@@H]1[C@@H]2CC[C@]2(C)C(=O)CC[C@@H]12 : concentration at 3 h value = 188 ng/mL
